- Assayed target: Insulin receptor (Homo sapiens)
- Assay text: Inhibition of INSR at 30 uM by microfluidic mobility shift assay
Kind request: treat 7% as inclusive, so inhibition at 7% or higher is 1 (yes), anything lower is 0 (no).

[
  {
    "Chem smiles": "Cc1[nH]c(=O)c2c(N)n(-c3ccccc3)nc2c1-c1ccccc1",
    "Category": "1 (yes)"
  },
  {
    "Chem smiles": "CC(=O)Nc1nn(C)c2cc(-c3ccc(N4CCN(C)CC4)cc3)[nH]c(=O)c12",
    "Category": "0 (no)"
  },
  {
    "Chem smiles": "Cc1cc2c(c(N)nn2C)c(N2CCOCC2)n1",
    "Category": "0 (no)"
  },
  {
    "Chem smiles": "Cc1cc2[nH]ncc2c(=O)[nH]1",
    "Category": "0 (no)"
  },
  {
    "Chem smiles": "Nc1n[nH]c2cc(CC3CCNCC3)[nH]c(=O)c12",
    "Category": "0 (no)"
  }
]
